- experimental.protocol: Terminal volume of distribution in mouse at 5 mg/kg, iv
- Format: ADME, organism-based
- Parameters: dose 5 mg/kg, route intravenous
- condition.label: in vivo, read-out: Vbeta
property: Vd

Could you please provide reported Vd for CN1CCN(C(=O)c2cc3cc(Cl)ccc3[nH]2)CC1 ? Thanks!
24 L/kg

###

- experimental.protocol: Plasma clearance in mouse at 2.5 mg/kg, iv
- Assay type: ADME, organism-based
- Design: dose 2.5 mg/kg, route intravenous
property: clearance (mL/min/kg)
Just the number in mL/min/kg, nothing appended.

Could you please provide reported clearance for CN1CCN(c2cc(-c3ccc(C#N)cc3)nc(N)n2)CC1 ? Thanks!
255

###

- experimental.protocol: Terminal volume of distribution in rat at 10 mg/kg, iv
- Type: ADME, organism-based
- Set-up: dose 10 mg/kg, route intravenous
- condition.label: in vivo, read-out: Vbeta
property: Vd (L/kg)
Just the number in L/kg, nothing appended.

Could you please provide reported Vd for CN1CCN(C(=O)c2cc3cc(Cl)ccc3[nH]2)CC1 ? Thanks!
37

###

- experimental.protocol: Terminal volume of distribution in mouse at 2.5 mg/kg, iv
- Type: ADME, organism-based
- Set-up: dose 2.5 mg/kg, route intravenous
- condition.label: in vivo, read-out: Vbeta
property: Vd (L/kg)
Just the number in L/kg, nothing appended.

Could you please provide reported Vd for CN1CCN(c2cc(-c3ccc(C#N)cc3)nc(N)n2)CC1 ? Thanks!
3.9

###

- tested.on: Cannabinoid receptor 1 (Homo sapiens, UniProt P21554)
- Sequence (P21554 whole entry): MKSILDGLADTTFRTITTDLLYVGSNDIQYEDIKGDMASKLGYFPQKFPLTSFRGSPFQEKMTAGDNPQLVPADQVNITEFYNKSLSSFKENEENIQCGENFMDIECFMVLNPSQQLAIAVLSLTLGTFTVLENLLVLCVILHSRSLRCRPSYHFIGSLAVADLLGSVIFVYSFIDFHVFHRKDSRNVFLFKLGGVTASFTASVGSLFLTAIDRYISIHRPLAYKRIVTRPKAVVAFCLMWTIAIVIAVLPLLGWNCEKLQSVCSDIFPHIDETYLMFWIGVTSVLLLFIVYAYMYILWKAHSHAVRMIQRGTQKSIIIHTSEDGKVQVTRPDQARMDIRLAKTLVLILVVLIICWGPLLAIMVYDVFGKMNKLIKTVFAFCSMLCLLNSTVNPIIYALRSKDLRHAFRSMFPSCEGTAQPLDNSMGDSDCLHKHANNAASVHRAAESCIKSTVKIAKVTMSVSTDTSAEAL
pKi: −log10 of the molar value.
property: pKi

Tell me its pKi on Cannabinoid receptor 1 (Homo sapiens, UniProt P21554): CN1CCN(c2cc(-c3ccc(C#N)cc3)nc(N)n2)CC1
< 5.00

###

- tested.on: Histamine H4 receptor (Rattus norvegicus)
- Sequence (Q91ZY1 whole entry): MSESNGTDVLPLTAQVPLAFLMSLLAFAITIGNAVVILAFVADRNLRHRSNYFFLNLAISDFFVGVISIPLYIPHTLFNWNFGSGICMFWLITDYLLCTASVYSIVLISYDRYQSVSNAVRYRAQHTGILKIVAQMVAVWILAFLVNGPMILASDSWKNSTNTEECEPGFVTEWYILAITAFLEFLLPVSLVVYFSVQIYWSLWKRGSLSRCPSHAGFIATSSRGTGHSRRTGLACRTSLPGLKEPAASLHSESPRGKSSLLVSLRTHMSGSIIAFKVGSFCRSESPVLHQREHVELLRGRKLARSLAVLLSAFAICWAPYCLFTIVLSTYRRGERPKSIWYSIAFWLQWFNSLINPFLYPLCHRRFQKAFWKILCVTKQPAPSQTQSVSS
- experimental.protocol: Agonist activity at rat histamine H4 receptor expressed in HEK293 cells coexpressing Gqi5 protein assessed as calcium flux by FLIPR assay
- Assay type: functional, cell-based
Entries and their pEC50 values follow.
pEC50 field: float, defined as -log10 of concentration (mol/L).

Tell me its pEC50 on Histamine H4 receptor (Rattus norvegicus): CN1CCN(c2cc(N3CCCCC3)nc(N)n2)CC1
7.33

Tell me its pEC50 on Histamine H4 receptor (Rattus norvegicus): CN1CCN(c2cc(-c3ccncc3)nc(N)n2)CC1
6.64

Tell me its pEC50 on Histamine H4 receptor (Rattus norvegicus): COc1cccc(-c2cc(N3CCN(C)CC3)nc(N)n2)c1
6.99

Tell me its pEC50 on Histamine H4 receptor (Rattus norvegicus): CNc1cc(N2CCN(C)CC2)nc(N)n1
6.31

Tell me its pEC50 on Histamine H4 receptor (Rattus norvegicus): CN1CCN(c2cc(C(C)(C)C)ncn2)CC1
6.03

Tell me its pEC50 on Histamine H4 receptor (Rattus norvegicus): CN1CCN(c2cc(C(C)(C)C)nc(Cl)n2)CC1
5.06

Tell me its pEC50 on Histamine H4 receptor (Rattus norvegicus): CN1CCN(c2ccnc(N)n2)CC1
6.94

Tell me its pEC50 on Histamine H4 receptor (Rattus norvegicus): CN1CCN(c2cc(C34CC5CC(CC(C5)C3)C4)nc(N)n2)CC1
6.50

New cases:
Tell me its pEC50 on Histamine H4 receptor (Rattus norvegicus): CN1CCN(c2cc(-c3cncnc3)nc(N)n2)CC1
5.10

Tell me its pEC50 on Histamine H4 receptor (Rattus norvegicus): CN1CCN(c2cc(N3CCN(C)CC3)nc(N)n2)CC1
5.87

Tell me its pEC50 on Histamine H4 receptor (Rattus norvegicus): CN1CCN(c2cc(-c3ccccc3)nc(N)n2)CC1
7.40

Tell me its pEC50 on Histamine H4 receptor (Rattus norvegicus): CN(C)CCOc1cc(C(C)(C)C)nc(N)n1
6.52
